Ref: ChEMBL document CHEMBL1201862

- Tested on: MOLT-4
- Test Details: NCI tumour cell line growth inhibition, 48 h
Activity calls are given as the source filed them. Rule as the data show it: active = GI50 up to about 1.1 µM and inactive = higher.
Response enum: active, inactive

A selection of reference data follows.
CCOC(C[C@H](O[Si](C)(C)C(C)(C)C)[C@H]1COC(=S)S1)OCC	inactive
COc1ccc(C(C)NNC(=O)c2cc[n+]([BH2-]C#N)cc2)cc1OC (stereo not given)	inactive
C=CCN1CCC2(CC1)NC(=O)c1ccccc1O2	inactive
CCOc1c(/N=N/c2ccccc2Cl)c(-c2ccccc2)nn1C(=S)S	inactive
COc1cc(C2CC(C)(N3CCOCC3)Oc3cc4c(cc32)OCO4)cc(OC)c1OC (stereo not given)	active
Clc1sc(Cl)c2c1[C@@H](Cl)C[C@@H]2Cl	inactive

Problem: Check the results log: what was the call for `[O-][N+]1=C(c2ccccc2)COc2ccccc21` ?
Result: inactive

Problem: Tell me the assay call for COc1cc(O)c2c(=O)cc(C3(OC(C)=O)C=CC(OC4OC(CO)C(O)C(O)C4O)C=C3)oc2c1 (stereo not given) please.
Result: inactive

Problem: Per the records of this test, what outcome belongs to `C/C(=N/NS(=O)(=O)c1ccc([N+](=O)[O-])cc1)c1cccc[n+]1[O-]` ?
Result: inactive

Problem: Field: outcome | Entry: `c1ccc([P+](Cc2ccc(C[P+](c3ccccc3)(c3ccccc3)c3ccccc3)s2)(c2ccccc2)c2ccccc2)cc1`
Result: inactive

###

- Test system: BT-549
- Test Details: NCI tumour cell line growth inhibition, 48 h
The source made the active and inactive calls. Cut-off read from the data, not from the text of the source: active = GI50 up to about 1.1 µM and inactive = higher.
Give one outcome, nothing more. List: active, inactive

Worked cases, answers included:
c1ccc(B2OCC(C3OB(c4ccccc4)OC4COB(c5ccccc5)OC43)O2)cc1 (stereo not drawn)	inactive
c1ccc([P+](Cc2ccc(C[P+](c3ccccc3)(c3ccccc3)c3ccccc3)s2)(c2ccccc2)c2ccccc2)cc1	inactive

Problem: Hello, I am checking results. What call was entered for NC(Cc1ccccc1)c1nccs1 (stereo not drawn) ?
Result: inactive

Problem: Identify the outcome logged in this assay for the compound shown: `c1ccc2c(c1)SC1=C(SC(=C3SC4=C(S3)Sc3ccccc3S4)S1)S2`
Result: inactive

Problem: I'd appreciate the recorded outcome for `NC(=O)NC(=O)c1cccc(NC(=O)CF)c1` from this test.
Result: inactive

###

- Test system: M19-MEL
- Test Details: NCI tumour cell line growth inhibition, 48 h
Calls of active or inactive are those of the source. Rule as the data show it: active = GI50 up to about 1.1 µM and inactive = higher.
Respond using exactly one of the listed classes: class 1 for active, class 0 for inactive

// below: answered molecules
COc1ccc([Se][Se]c2ccc(OC)cc2OC)c(OC)c1	class 0
CN1C(=O)CC2(C)c3cc(O)ccc3N(C)C12 (stereo not drawn)	class 0
O=C1C(=O)N(C2C3CC4CC(C3)CC2C4)C(=O)C(=O)C1c1nc2ccccc2o1 (stereo not drawn)	class 0
O=C1COc2cc3c(cc2N1)SCC(=O)N3	class 0
COc1cccc2c1c1ccc3c(c1n2C)C(=O)C=CC3=O	class 0
CC(=O)O[C@]1(C)CCC2C(C)C(=O)OC2C2C(C)[C@@H](O)CC21 (stereo partly drawn)	class 0

Problem: // param item: `CC[C@@]1(O)C(=O)OCc2c1cc1n(c2=O)Cc2cc3cc4c(cc3nc2-1)OCO4` ; yields the recorded call
Result: class 1

Problem: Test call, this molecule: `Cc1ccc(/C=N/C23CC4CC(CC(C4)C2)C3)cc1`
Result: class 0

Problem: Hi, do you know how `CCOC(=O)C(=O)Nc1cccc(C)c1C` came out in this test?
Result: class 0

Problem: Tell me the assay call for O=C(O)C12C3C4C1C1C2C3C1(Br)C41OCCO1 (stereo not drawn) please.
Result: class 0

Problem: // param item: `O=C(CN1CCOCC1)Nc1nc(-c2ccc(Cl)cc2)cs1` ; yields the recorded call
Result: class 0

Problem: Hi, do you know how CCC(O)C1Cc2c(C)cc3c(c2O1)C(=O)c1ccccc1C3=O (stereo not drawn) came out in this test?
Result: class 0

Problem: Which outcome was entered for the molecule COc1cc(/C=C2\CCC/C(=C\c3ccc(O)c(OC)c3)C2=O)ccc1O [CYCLOVALONE] in this test?
Result: class 0

Problem: Fill in: this test's call for `C/N=C(\N)c1ccc(NC(=N)c2ccc(C(=N)Nc3ccc(/C(N)=N/C)cc3)cc2)cc1` is ___
Result: class 0

Problem: Test call for this molecule, please: `C/C(CC(=O)Nc1ccc(Cl)cc1)=N\NC(N)=S`
Result: class 0

Problem: Can you look up the reported call for `NCCn1cnc2nc(NC(=O)c3ccccc3)[nH]c(=O)c21` for me?
Result: class 0

Problem: Hey, what did the test say about `CC(=O)Nc1ccc(C(=O)N2N=C(C)/C(=C/c3ccccc3O)C2=O)cc1` ?
Result: class 0

Problem: Hello, I am checking results. What call was entered for O=C(O)CCC1(Br)CCCCC(Br)C1=O (stereo not drawn) ?
Result: class 0

Problem: Entry `CCCCNC1=C2C(=O)NN=C2CO1` : call = ?
Result: class 0

Problem: Please state the recorded outcome for this molecule: COc1ccc(C2C(C(=O)O)=C(COC(C)=O)Oc3cc4c(cc32)OCO4)c(OC)c1 (stereo not drawn)
Result: class 0
